Hi there, I'd appreciate the recorded inhibition at 72 h, 50 µM for every entry that follows.
- assayText: Cytotoxicity against mouse RAW264.7 cells assessed as growth inhibition at 50 uM after 72 hrs by MTT assay
- Type: cell-based
- conditions: read-out: GI
Answer with a number only, understood to be in %.

Which inhibition at 72 h, 50 µM value belongs to NC(=O)c1c(NC(=O)c2ccccc2)sc2c1CCCCCC2 ? 26.6

Consider the compound CN1CCc2c(sc(NC(=O)C3CCCC3)c2C(N)=O)C1 and give its measured inhibition at 72 h, 50 µM. 18.2

Which inhibition at 72 h, 50 µM value is on record for Cc1ccc(C(=O)Nc2sc3c(c2C(N)=O)CCCCCC3)cc1 ? 20.5

Reported inhibition at 72 h, 50 µM, compound NC(=O)c1c(NC(=O)C2CCCCC2)sc2c1CCCCCC2 : ____ 16.6

Reported inhibition at 72 h, 50 µM for NC(=O)c1c(NC(=O)c2ccc(Oc3ccccc3)cc2)sc2c1CCCCCC2 : what is it? 22.2

Param item = CC(=O)Nc1sc2c(c1C(N)=O)CCCCCC2 ; retrieve measured inhibition at 72 h, 50 µM. 24.6
